Origin of measurements: patent US20230263822A1

System: IL-1β, IL-6, IFN-γ, TNF-α, IL-8, MIP-1α, MCP-1, MIP-1β, RANTES
measurement-notes: Cytokine and chemokine assays in cynomolgus monkeys (Example 46)
Assay type: in vivo
applied-conditions: day 55
Procedure: Groups, each consisting of two male and two female monkeys, were injected subcutaneously with 25 mg/kg of ISIS 416850, ISIS 449709, ISIS 445522, ISIS 449710, ISIS 449707, ISIS 449711, ISIS 449708, 416858, and ISIS 445531. […] Body weights were taken 14 days and 7 days before the start of treatment and were then measured weekly throughout the treatment period. […]
Strand notation (5' to 3'): a small letter for the sugar, then the base; units joined by * are phosphorothioate-linked, units joined directly phosphodiester-linked; [ ] holds rarer units or linkages, { } end groups; capitals alone tell only the bases. e = 2'-O-(2-methoxyethyl) (MOE); [5mC] = 5-methylcytosine; d = 2'-deoxy (DNA)
Reported RANTES level values for a set of substances
Kindly answer with a numeric value in pg/mL, unit omitted.

| substance | unit-abbrev | experimental-value |
| --- | --- | --- |
| ISIS 445522: 5-8-5 or 6-8-6 MOE microwalk gapmer (Table 44) (antisense eG*e[5mC]*eA*e[5mC]*eA*dG*dT*dT*dT*d[5mC]*dT*dG*dG*e[5mC]*eA*eG*eG*e[5mC]) | pg/mL | 16154 |
| ISIS 416850: MOE gapmer, nucleobases 1275 to 1318 of SEQ ID NO: 1 (Table 8) (antisense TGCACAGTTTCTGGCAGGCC; MOE gapmer, wing and gap sizes not given here) | pg/mL | 27503 |

Note to self: RANTES level recorded for ISIS 449709: 3-8-3, 4-8-4, 2-10-2, 3-10-3 or 4-10-4 MOE microwalk gapmer (Table 46) (antisense eG*e[5mC]*eA*e[5mC]*dA*dG*dT*dT*dT*d[5mC]*dT*dG*dG*d[5mC]*eA*eG*eG*e[5mC]) was 8958

Note to self: RANTES level recorded for ISIS 449711: 3-8-3, 4-8-4, 2-10-2, 3-10-3 or 4-10-4 MOE microwalk gapmer (Table 46) (antisense eA*e[5mC]*dA*dG*dT*dT*dT*d[5mC]*dT*dG*dG*d[5mC]*eA*eG) was 3029

----------
Reported MCHC values for a set of substances
measurement-notes: Hematology assays in cynomolgus monkeys (Example 45)
Format: in vivo
applied-conditions: day −14; escalating dose regimen
Kindly answer with a numeric value in g/dL, unit omitted.

Examples from the recorded data:
| substance | unit-abbrev | experimental-value |
| --- | --- | --- |
| ISIS 416864: MOE gapmer, nucleobases 1275 to 1318 of SEQ ID NO: 1 (Table 8) (antisense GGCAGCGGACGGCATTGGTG; MOE gapmer, wing and gap sizes not given here) | g/dL | 29 |
| ISIS 416850: MOE gapmer, nucleobases 1275 to 1318 of SEQ ID NO: 1 (Table 8) (antisense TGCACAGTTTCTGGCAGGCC; MOE gapmer, wing and gap sizes not given here) | g/dL | 30 |
| ISIS 417002: MOE gapmer, nucleobases 1275 to 1318 of SEQ ID NO: 1 (Table 8) (antisense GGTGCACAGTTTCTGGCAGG; MOE gapmer, wing and gap sizes not given here) | g/dL | 30 |
| ISIS 416858: MOE gapmer, nucleobases 1275 to 1318 of SEQ ID NO: 1 (Table 8) (antisense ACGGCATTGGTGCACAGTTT; MOE gapmer, wing and gap sizes not given here) | g/dL | 31 |

Now, please, on to the next substance.
Note to self: MCHC recorded for ISIS 416838: MOE gapmer, nucleobases 1018 to 1042 of SEQ ID NO: 1 (Table 6) (antisense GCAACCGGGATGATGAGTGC; MOE gapmer, wing and gap sizes not given here) was 30

----------
applied-conditions: mouse, in vivo, sc, 50 mg/kg
e = 2'-O-(2-methoxyethyl) (MOE); d = 2'-deoxy (DNA)
measured-parameter: Platelets

Examples from the recorded data:
| substance | Platelets |
| --- | --- |
| ISIS 416855: MOE gapmer, nucleobases 1275 to 1318 of SEQ ID NO: 1 (Table 8) (antisense CATTGGTGCACAGTTTCTGG; MOE gapmer, wing and gap sizes not given here) | 784 10^3/μL |
| ISIS 412223: 5-10-5 MOE gapmer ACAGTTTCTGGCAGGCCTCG (sugars from the 5' end e5 d10 e5, backbone and methylation of C not given here) | 862 10^3/μL |
| ISIS 416857: MOE gapmer, nucleobases 1275 to 1318 of SEQ ID NO: 1 (Table 8) (antisense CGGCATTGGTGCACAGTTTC; MOE gapmer, wing and gap sizes not given here) | 603 10^3/μL |
| ISIS 412225: 5-10-5 MOE gapmer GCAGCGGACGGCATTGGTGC (sugars from the 5' end e5 d10 e5, backbone and methylation of C not given here) | 574 10^3/μL |

Now, please, on to the next substance.
Note to self: Platelets recorded for ISIS 416861: MOE gapmer, nucleobases 1275 to 1318 of SEQ ID NO: 1 (Table 8) (antisense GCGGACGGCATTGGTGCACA; MOE gapmer, wing and gap sizes not given here) was 836 10^3/μL

----------
Reported hematocrit values for a set of substances
measurement-notes: Hematology assays in cynomolgus monkeys (Example 45)
Format: in vivo
applied-conditions: day 85; escalating dose regimen
Kindly answer with a numeric value in %, unit omitted.

Examples from the recorded data:
| substance | measured-parameter | experimental-value |
| --- | --- | --- |
| ISIS 416838: MOE gapmer, nucleobases 1018 to 1042 of SEQ ID NO: 1 (Table 6) (antisense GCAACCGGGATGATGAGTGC; MOE gapmer, wing and gap sizes not given here) | hematocrit | 42 |
| ISIS 417002: MOE gapmer, nucleobases 1275 to 1318 of SEQ ID NO: 1 (Table 8) (antisense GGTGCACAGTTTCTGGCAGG; MOE gapmer, wing and gap sizes not given here) | hematocrit | 41 |
| ISIS 416858: MOE gapmer, nucleobases 1275 to 1318 of SEQ ID NO: 1 (Table 8) (antisense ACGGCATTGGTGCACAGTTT; MOE gapmer, wing and gap sizes not given here) | hematocrit | 39 |
| ISIS 416850: MOE gapmer, nucleobases 1275 to 1318 of SEQ ID NO: 1 (Table 8) (antisense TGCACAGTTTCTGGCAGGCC; MOE gapmer, wing and gap sizes not given here) | hematocrit | 42 |

Now, please, on to the next substance.
Note to self: hematocrit recorded for ISIS 416864: MOE gapmer, nucleobases 1275 to 1318 of SEQ ID NO: 1 (Table 8) (antisense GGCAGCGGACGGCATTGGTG; MOE gapmer, wing and gap sizes not given here) was 40

----------
measurement-notes: Liver function, ALT, AST, bilirubin in cynomolgus monkeys (Example 46)
Format: in vivo
applied-conditions: Day −5; plasma
Strand notation (5' to 3'): a small letter for the sugar, then the base; units joined by * are phosphorothioate-linked, units joined directly phosphodiester-linked; [ ] holds rarer units or linkages, { } end groups; capitals alone tell only the bases. e = 2'-O-(2-methoxyethyl) (MOE); [5mC] = 5-methylcytosine; d = 2'-deoxy (DNA)
measured-parameter: Bilirubin
Please state the number and follow it with the unit.

| substance | Bilirubin |
| --- | --- |
| ISIS 416850: MOE gapmer, nucleobases 1275 to 1318 of SEQ ID NO: 1 (Table 8) (antisense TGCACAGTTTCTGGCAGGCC; MOE gapmer, wing and gap sizes not given here) | 0.22 mg/dL |
| ISIS 449707: 3-8-3, 4-8-4, 2-10-2, 3-10-3 or 4-10-4 MOE microwalk gapmer (Table 46) (antisense e[5mC]*eA*e[5mC]*eA*dG*dT*dT*dT*d[5mC]*dT*dG*dG*e[5mC]*eA*eG*eG) | 0.19 mg/dL |

Note to self: Bilirubin recorded for ISIS 416858: MOE gapmer, nucleobases 1275 to 1318 of SEQ ID NO: 1 (Table 8) (antisense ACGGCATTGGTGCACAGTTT; MOE gapmer, wing and gap sizes not given here) was 0.23 mg/dL

Note to self: Bilirubin recorded for ISIS 445531: 5-8-5 or 6-8-6 MOE microwalk gapmer (Table 44) (antisense eG*eG*e[5mC]*eA*eT*dT*dG*dG*dT*dG*d[5mC]*dA*d[5mC]*eA*eG*eT*eT*eT) was 0.18 mg/dL

----------
measurement-notes: Hematology assays in cynomolgus monkeys (Example 45)
Format: in vivo
applied-conditions: day 29
Reported eosinophils values for a set of substances
Kindly answer with a numeric value in %, unit omitted.

Examples from the recorded data:
| substance | eosinophils, % |
| --- | --- |
| ISIS 416838: MOE gapmer, nucleobases 1018 to 1042 of SEQ ID NO: 1 (Table 6) (antisense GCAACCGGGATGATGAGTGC; MOE gapmer, wing and gap sizes not given here) | 0.3 |
| ISIS 417002: MOE gapmer, nucleobases 1275 to 1318 of SEQ ID NO: 1 (Table 8) (antisense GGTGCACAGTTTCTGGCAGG; MOE gapmer, wing and gap sizes not given here) | 0.3 |
| ISIS 416864: MOE gapmer, nucleobases 1275 to 1318 of SEQ ID NO: 1 (Table 8) (antisense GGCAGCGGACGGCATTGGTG; MOE gapmer, wing and gap sizes not given here) | 0.9 |
| ISIS 416858: MOE gapmer, nucleobases 1275 to 1318 of SEQ ID NO: 1 (Table 8) (antisense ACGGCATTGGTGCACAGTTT; MOE gapmer, wing and gap sizes not given here) | 0.6 |

Note to self: eosinophils recorded for ISIS 416850: MOE gapmer, nucleobases 1275 to 1318 of SEQ ID NO: 1 (Table 8) (antisense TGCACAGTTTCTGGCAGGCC; MOE gapmer, wing and gap sizes not given here) was 1.2
